System: 435261-313-R-J1-PDC tumor spheroid viability;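 also: spheroids exposed to compounds for 7 days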
Assay: Anticancer human tumor 435261-313-R-J1-PDC patient-derived colon adenocarcinoma cell line growth inhibition [PI3K]
Conditions: second compound 0.0316 µM; first compound 0.01 µM; hits give low values; spheroids with HUVEC and MSC
Listed molecules paired with reported viability, T/C

>  <Molecule>
Cn1ncnc1[C@H]1c2n[nH]c(=O)c3cc(F)cc(c23)N[C@@H]1c1ccc(F)cc1 + CC(Nc1ncnc2nc[nH]c12)c1cc2cccc(Cl)c2c(=O)n1-c1ccccc1

>  <Assayed System>
435261-313-R-J1-PDC tumor spheroid viability;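 also: spheroids exposed to compounds for 7 days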

>  <Measure Unit>
%

>  <viability, T/C>
82.5

$$$$
>  <Molecule>
CCN1CCN(Cc2ccc(Nc3ncc(F)c(-c4cc(F)c5nc(C)n(C(C)C)c5c4)n3)nc2)CC1 + COc1c(OCCCN2CCOCC2)ccc2c3n(c(=NC(=O)c4cnc(N)nc4)nc12)CCN3

>  <Assayed System>
435261-313-R-J1-PDC tumor spheroid viability;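 also: spheroids exposed to compounds for 7 days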

>  <Measure Unit>
%

>  <viability, T/C>
22.6

$$$$
>  <Molecule>
Cn1ncnc1[C@H]1c2n[nH]c(=O)c3cc(F)cc(c23)N[C@@H]1c1ccc(F)cc1 + COc1c(OCCCN2CCOCC2)ccc2c3n(c(=NC(=O)c4cnc(N)nc4)nc12)CCN3

>  <Assayed System>
435261-313-R-J1-PDC tumor spheroid viability;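 also: spheroids exposed to compounds for 7 days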

>  <Measure Unit>
%

>  <viability, T/C>
21.2

$$$$
>  <Molecule>
Cn1ncnc1[C@H]1c2n[nH]c(=O)c3cc(F)cc(c23)N[C@@H]1c1ccc(F)cc1 + Cc1nc(NC(=O)N2CCCC2C(N)=O)sc1-c1ccnc(C(C)(C)C(F)(F)F)c1

>  <Assayed System>
435261-313-R-J1-PDC tumor spheroid viability;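 also: spheroids exposed to compounds for 7 days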

>  <Measure Unit>
%

>  <viability, T/C>
77.1

$$$$
>  <Molecule>
CCN1CCN(Cc2ccc(Nc3ncc(F)c(-c4cc(F)c5nc(C)n(C(C)C)c5c4)n3)nc2)CC1 + CC(Nc1ncnc2nc[nH]c12)c1cc2cccc(Cl)c2c(=O)n1-c1ccccc1

>  <Assayed System>
435261-313-R-J1-PDC tumor spheroid viability;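 also: spheroids exposed to compounds for 7 days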

>  <Measure Unit>
%

>  <viability, T/C>
81.8

$$$$
